Items are presented alongside their recorded growth inhibition.
experiment: NCI Yeast Anticancer Drug Screen. Data for the rad50 strain (AID 155);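 also: 0% = growth of vehicle-only cultures of the same strain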; details: S. cerevisiae rad50 strain growth inhibition; at 50.0 µM; stronger effect = higher value
This is part of a sample that, as a whole, favours compounds with a hit. Of some 79,000 tested, about 15% had one in any assay.
MEASURE_NAME: growth inhibition (%)

- COMPOUND: "c1ccc2c(C3=NCCO3)cccc2c1"
  SCALE_UNIT: "%"
  ASSAY_RESULT: 11.7
- COMPOUND: "CCOC(=O)C(Cc1ccc(O)cc1)NC(=O)C(CSC(c1ccccc1)(c1ccccc1)c1ccccc1)NC(c1ccccc1)(c1ccccc1)c1ccccc1 (configuration not stated)"
  SCALE_UNIT: "%"
  ASSAY_RESULT: 4.85
- COMPOUND: "N#Cc1c(F)cccc1N1CCSCC1"
  SCALE_UNIT: "%"
  ASSAY_RESULT: 3.5
- COMPOUND: "C=CC(=O)OCCCS(=O)(=O)[O-].C=CC(=O)OCCCS(=O)(=O)[O-].NC1CCCCC1N.[Pt+4]"
  SCALE_UNIT: "%"
  ASSAY_RESULT: 3.05
- COMPOUND: "O=C1CC2CCCCC2CC1c1ccccc1 (configuration not stated)"
  SCALE_UNIT: "%"
  ASSAY_RESULT: 6.35
- COMPOUND: "O=c1cc(-c2cccnc2)oc2ccc(Cl)cc12"
  SCALE_UNIT: "%"
  ASSAY_RESULT: 59.8
- COMPOUND: "CC(=O)O[C@]12CCCC1C1(O)C(O)CCCC12 (some centres not stated)"
  SCALE_UNIT: "%"
  ASSAY_RESULT: -30.7
- COMPOUND: "CCNC(=O)CCP(=O)(CCC(=O)NCC)CCC(=O)NCC"
  SCALE_UNIT: "%"
  ASSAY_RESULT: 7.25
- COMPOUND: "Cc1ncc(CO)c(/C=N/NC(N)=S)c1O"
  SCALE_UNIT: "%"
  ASSAY_RESULT: 3.3
- COMPOUND: "CCCCC(Sc1cc(Cl)c(C)cc1S(=O)(=O)Nc1n[nH]c(N)n1)C(=O)OC (configuration not stated)"
  SCALE_UNIT: "%"
  ASSAY_RESULT: -4.85
- COMPOUND: "Cc1cc(C)nc(NC(=O)COc2ccc(Cl)cc2)c1"
  SCALE_UNIT: "%"
  ASSAY_RESULT: -15.7
- COMPOUND: "CCc1ccc(O)cc1"
  SCALE_UNIT: "%"
  ASSAY_RESULT: -3.4
- COMPOUND: "Cc1ccc(-n2c(=S)n(-c3ccccc3C)c3nc4ccccc4nc2/c3=N\\Nc2ccccc2)cc1"
  SCALE_UNIT: "%"
  ASSAY_RESULT: -6.85
- COMPOUND: "Nc1nc(SCC(=O)O)nc(N)c1N=Nc1ccc(S(=O)(=O)NC(=O)c2ccccc2)cc1"
  SCALE_UNIT: "%"
  ASSAY_RESULT: 7.3
- COMPOUND: "COc1ccc(Cl)c(C(=O)O)c1"
  SCALE_UNIT: "%"
  ASSAY_RESULT: 19.1
- COMPOUND: "Cc1cccc(N=Cc2ccc(N(CCC#N)S(=O)(=O)c3ccccc3)cc2C)c1"
  SCALE_UNIT: "%"
  ASSAY_RESULT: -34.5
- COMPOUND: "NC1=NC(c2ccccc2)C2=C(N1)C(=O)N(c1ccc(Br)cc1)C2 (configuration not stated)"
  SCALE_UNIT: "%"
  ASSAY_RESULT: 43.3
- COMPOUND: "CSc1ccc(NC(=O)Nc2cc(C)ccn2)cc1"
  SCALE_UNIT: "%"
  ASSAY_RESULT: 5.8
- COMPOUND: "Nc1ccn(CC(=O)c2ccc(Cl)s2)c(=O)n1"
  SCALE_UNIT: "%"
  ASSAY_RESULT: -1
- COMPOUND: "C=CCNC(=S)N/C=C(\\C#N)c1nc2ccccc2s1"
  SCALE_UNIT: "%"
  ASSAY_RESULT: 0.3
- COMPOUND: "N#CC(C#N)=CN1CCCCC1"
  SCALE_UNIT: "%"
  ASSAY_RESULT: -16.2
- COMPOUND: "CC(=O)Nc1ccc(S(=O)(=O)n2c(=O)oc3cc(Br)ccc32)cc1"
  SCALE_UNIT: "%"
  ASSAY_RESULT: 7.4
- COMPOUND: "NC12CCC(CC1)C2"
  SCALE_UNIT: "%"
  ASSAY_RESULT: -14.3
- COMPOUND: "Cc1ccc(NC(=O)CC/C(CC(=O)C(C)(C)C)=N/NC(=O)C(N)=O)cc1C"
  SCALE_UNIT: "%"
  ASSAY_RESULT: -2.75
- COMPOUND: "O=[N+]([O-])c1ccc2c(Cl)c3ccccc3nc2c1"
  SCALE_UNIT: "%"
  ASSAY_RESULT: 20.1
- COMPOUND: "CC(=O)N(C(C)=O)n1c(Cc2ccc(Cl)cc2)nn(C(C)=O)c1=O"
  SCALE_UNIT: "%"
  ASSAY_RESULT: 7.85
- COMPOUND: "OCC1OCOC1C1OCOC1CO (configuration not stated)"
  SCALE_UNIT: "%"
  ASSAY_RESULT: 0.55
- COMPOUND: "COC(=O)OCC1OC(OC(C)=O)C2OC(=O)OC12 (configuration not stated)"
  SCALE_UNIT: "%"
  ASSAY_RESULT: 8.55
- COMPOUND: "O=Cc1ccc(/C=C/C(=O)O)cc1"
  SCALE_UNIT: "%"
  ASSAY_RESULT: -1.55
- COMPOUND: "Cc1cc(N2CCOCC2)nc2ccc(Cc3ccc4nc(N5CCOCC5)cc(C)c4c3)cc12"
  SCALE_UNIT: "%"
  ASSAY_RESULT: 13.5
- COMPOUND: "Cc1cc(C)c2c(-c3ccccc3)cc(=O)[nH]c2c1"
  SCALE_UNIT: "%"
  ASSAY_RESULT: -33
- COMPOUND: "Cc1ccc(NC(=O)c2cc3cc(N=Nc4ccc(Br)cc4)ccc3oc2=O)cc1"
  SCALE_UNIT: "%"
  ASSAY_RESULT: 16
- COMPOUND: "O=C(Nc1ccc([N+](=O)[O-])cc1Cl)c1ccc(C(=O)Nc2ccc([N+](=O)[O-])cc2Cl)cc1"
  SCALE_UNIT: "%"
  ASSAY_RESULT: -6.4
- COMPOUND: "CC(C)(C)C(=O)CC(=O)C(C)(C)C.CC(C)(C)C(=O)CC(=O)C(C)(C)C.CC(C)(C)C(=O)CC(=O)C(C)(C)C.[Co]"
  SCALE_UNIT: "%"
  ASSAY_RESULT: -10.1
- COMPOUND: "O=C(Nc1cccc2c1C(=O)c1cc(Cl)ccc1C2=O)c1ccccc1"
  SCALE_UNIT: "%"
  ASSAY_RESULT: -2.7
- COMPOUND: "CC1CC=C2C=C(Cl)C=CC2(C)C1C (configuration not stated)"
  SCALE_UNIT: "%"
  ASSAY_RESULT: 1.8
- COMPOUND: "CC(=O)Nc1ccc(C(F)(F)F)cc1"
  SCALE_UNIT: "%"
  ASSAY_RESULT: -5.2
- COMPOUND: "O=S(=O)(Nc1ccccc1C(O)c1ccccc1)c1ccccc1 (configuration not stated)"
  SCALE_UNIT: "%"
  ASSAY_RESULT: 35.5
- COMPOUND: "Cc1cc(Cl)ccc1NC(=O)C1C(=O)N(c2ccc(Cl)cc2C)C(=O)/C1=N\\NC(N)=O (configuration not stated)"
  SCALE_UNIT: "%"
  ASSAY_RESULT: 7.65
- COMPOUND: "Cn1c(=O)[nH]nc(Br)c1=O"
  SCALE_UNIT: "%"
  ASSAY_RESULT: 2.55
- COMPOUND: "COc1ccccc1C(O)c1ccccc1 (configuration not stated)"
  SCALE_UNIT: "%"
  ASSAY_RESULT: 9.6
- COMPOUND: "CCCC(=O)Nc1cc(/C=C/C(=O)N2C[C@H]3C[C@@]34C2=CC(=O)c2[nH]cc(C)c24)n(C)c1"
  SCALE_UNIT: "%"
  ASSAY_RESULT: 80.2
- COMPOUND: "N=C(N)N1CCC(N2CCOCC2)CC1"
  SCALE_UNIT: "%"
  ASSAY_RESULT: 14.7
- COMPOUND: "S=C(c1ccccc1)N1CCCCC1"
  SCALE_UNIT: "%"
  ASSAY_RESULT: 8
- COMPOUND: "Cc1ccc(NC(=O)NCCCCCCNC(=O)Nc2ccc(C)cc2)cc1"
  SCALE_UNIT: "%"
  ASSAY_RESULT: -7.05
- COMPOUND: "CNc1ncnc2c1ncn2C1OC(CO)C(O)C1O (configuration not stated)"
  SCALE_UNIT: "%"
  ASSAY_RESULT: -1.4
- COMPOUND: "CCCCC(CC)COB(OCC(CC)CCCC)OCC(CC)CCCC (configuration not stated)"
  SCALE_UNIT: "%"
  ASSAY_RESULT: -41
